Settings: 301.15 K; 101.33 kPa; Liquid; Pulse-echo method
Numbers after ± are expanded uncertainties.
Give speed of sound for every item shown.
Express your answer as a number followed by its unit.

### Prompt Quick check: speed of sound of CC(C)C(=O)[O-].C[NH2+]CCO [2-hydroxy-N-methylethanaminium isobutyrate] ?
### Response 1602.8 ± 2.1 m/s

### Prompt Could you do the same for CCCC(=O)[O-].C[NH2+]CCO [N-methyl-2-hydroxyethylammonium butanoate] , please?
### Response 1605 ± 2.1 m/s

### Prompt Could you do the same for CCCCC(=O)[O-].C[NH2+]CCO [2-hydroxy-N-methylethanaminium pentanoate] , please?
### Response 1539.3 ± 2.1 m/s

### Prompt Could you do the same for CCC(=O)[O-].C[NH2+]CCO [2-hydroxy-N-methylethanaminium propionate] , please?
### Response 1681.1 ± 2.2 m/s

### Prompt Could you do the same for C[NH2+]CCO.O=C[O-] [2-hydroxy-N-methylethanaminium formate] , please?
### Response 1809.5 ± 2.2 m/s

This collection of values is drawn from the NIST ThermoML archive (doi:10.1021/je900550v).
